Source: patent US7829563B2

- measurement.target: human orexin-2 (hOX2) receptors (Homo sapiens)
- Construct: expressed in transfected cells
- Sequence (O43614 1-444): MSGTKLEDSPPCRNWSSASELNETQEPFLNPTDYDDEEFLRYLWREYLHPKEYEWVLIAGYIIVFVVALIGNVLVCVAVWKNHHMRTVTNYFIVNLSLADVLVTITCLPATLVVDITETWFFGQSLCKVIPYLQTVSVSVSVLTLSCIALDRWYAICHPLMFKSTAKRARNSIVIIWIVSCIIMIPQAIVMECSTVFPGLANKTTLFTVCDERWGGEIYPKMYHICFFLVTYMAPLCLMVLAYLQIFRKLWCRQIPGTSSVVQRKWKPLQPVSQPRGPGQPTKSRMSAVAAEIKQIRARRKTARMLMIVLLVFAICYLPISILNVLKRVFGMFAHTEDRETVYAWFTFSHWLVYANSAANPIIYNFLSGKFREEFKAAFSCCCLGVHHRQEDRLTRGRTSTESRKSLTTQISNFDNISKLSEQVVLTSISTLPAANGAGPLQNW
- assay: Intracellular Ca2+ mobilization assay (FLIPR), antagonism of orexin-A
- Assay type: cell-based
- condition.parameters: CHO(dHFr−) cells stably expressing hOX2; orexin-A at EC80 as agonist; Kb=IC50/(1+[A]/EC50); read-out: Kb (μM) OX2R (human)
Kindly state Kb for each of the entries shown.
Answers are plain numbers, in µM.

Some entries whose results are on file:
INSERT INTO results (compound, result_units, test_value) VALUES
  ('CNC(=O)[C@H](N[C@@H](CCc1ccc(Cl)nc1)c1ccc(F)c(C)c1)c1ccccc1 (racemic)', 'µM', 0.0175),
  ('CNC(=O)[C@@H](N[C@@H](CCc1ccc(C(F)(F)F)cc1)c1ccc(OC)c(OC)c1)c1ccccc1 (racemic)', 'µM', 0.0168),
  ('Cc1cc([C@H](CCc2ccc(C(F)(F)F)nc2)N[C@@H](C(N)=O)c2ccccc2)ccc1F', 'µM', 0.0057);

**Query** If you can, please state the reported Kb value of CNC(=O)[C@H](N[C@H](CCc1ccc(C(F)(F)F)nc1)c1ccc(Cl)c(OC)c1)c1ccc(F)cc1 (racemic) .
**Result** 0.0171
